Reported log10 of concentration at 1 h is given for each of the following compounds.
test: Drug uptake in B6C3F1 mouse plasma at 5 mg/kg, ip after 1 hr; format: ADME, organism-based; set-up: dose 5 mg/kg, route intraperitoneal; conditions: B6C3F1, mouse, plasma
Heads up, the numbers here are log10 of concentration at 1 h in ng/mL units.

Below: 7 compounds and their reported log10 of concentration at 1 h.
[[record]]
structure = "CC(C)NC(=O)c1nn(-c2ccc(F)cc2)c(=O)c2c(N)scc12"
measured_parameter = "log10 of concentration at 1 h"
readout_number = 2.04

[[record]]
structure = "Nc1scc2c(C(=O)NCC(F)(F)F)nn(-c3ccc(F)cc3)c(=O)c12"
measured_parameter = "log10 of concentration at 1 h"
readout_number = 2.60

[[record]]
structure = "Cc1nn(Cc2ccccc2)c(=O)c2c(N)scc12"
measured_parameter = "log10 of concentration at 1 h"
readout_number = 1.89

[[record]]
structure = "Nc1scc2c(C(=O)NC3CC3)nn(-c3ccc(F)cc3)c(=O)c12"
measured_parameter = "log10 of concentration at 1 h"
readout_number = 2.79

[[record]]
structure = "CC(C)NC(=O)c1nn(-c2ccc(O)cc2)c(=O)c2c(N)scc12"
measured_parameter = "log10 of concentration at 1 h"
readout_number = 2.18

[[record]]
structure = "CC(C)NC(=O)c1nn(-c2ccc(Cl)cc2)c(=O)c2c1CSC2=O"
measured_parameter = "log10 of concentration at 1 h"
readout_number = 3.67

[[record]]
structure = "Cc1nn(C)c(=O)c2c(N)scc12"
measured_parameter = "log10 of concentration at 1 h"
readout_number = 1.00


Ask: Please give the measured log10 of concentration at 1 h for this compound: Cc1nn(-c2ccccn2)c(=O)c2c(N)scc12
Result: 1.79
